Reference source for all entries: PubChem BioAssay

- assayInfo: reversal of MRP1-mediated doxorubicin resistance, pilot screen, H69AR cells, doxorubicin co-treatment (AID 601)
- appliedConditions: H69AR cells, CellTiter-Glo, 72 h; compound alone cytotoxicity; at 10 µM
Can you tell me viability for the items I'm about to list?
Mention the unit after the number when you answer.

Recorded viability, per entry:
In [3]: df
Out[3]:
                                 molecule    readout  observed
0         Cc1cccc(NC(=O)c2ccc3ccccc3n2)n1  viability     76.3%
1  Cc1cccc(C(=O)N(C)c2nnc(-c3ccncc3)s2)c1  viability     85.8%

Please look at the items below and tell me viability for each one, in order.
1. N#CC1=C(N)N2C(=C(C#N)C13CCCCC3)SC1CCCCC12O (stereo unspecified)
2. Cc1ccc(C)c(Cn2c(=O)n(CCC(=O)NCc3ccco3)c(=O)c3sccc32)c1
3. Cc1cc(C)cc(OCC(=O)NC2=NCCS2)c1
4. O=C(CCNNC(=O)c1ccncc1)NCc1ccccc1

Solution:
1: 76.1%; 2: 87.7%; 3: 96.1%; 4: 93.5%
